FYI, the data here is from ChEMBL document CHEMBL4431337.

System: Huh-7
test.name: Cytotoxicity against human HuH7 cells assessed as inhibition of cell growth after 48 hrs by MTT assay
Assay type: functional, cell-based
condition.details: Huh-7, 48 h
pIC50: −log10 of the molar value.
endpoint.label: pIC50

sample.smiles: Cc1cccc(Oc2c(/C=N/OCc3snnc3C)c(C)nn2C)c1
pIC50: < 4.30

sample.smiles: CCCc1nnsc1CO/N=C/c1c(C)nn(C)c1Oc1ccccc1C
pIC50: < 4.30

sample.smiles: CCc1nnsc1CO/N=C/c1c(C)nn(C)c1Oc1ccccc1Cl
pIC50: < 4.30

sample.smiles: CCCc1nnsc1CO/N=C/c1c(C)nn(C)c1Oc1ccc(Cl)cc1
pIC50: < 4.30

sample.smiles: Cc1ccc(Oc2c(/C=N/OCc3snnc3C)c(C)nn2C)cc1
pIC50: < 4.30

sample.smiles: Cc1nnsc1CO/N=C/c1c(C)nn(C)c1Oc1ccc(F)cc1
pIC50: < 4.30

# input pIC50 for `Cc1nnsc1CO/N=C/c1c(C)nn(C)c1Oc1ccccc1Cl` ?
# output < 4.30

# input Lookup `CCCc1nnsc1CO/N=C/c1c(C)nn(C)c1Oc1ccc(F)cc1`
# output < 4.30

# input Lookup `Cc1nnsc1CO/N=C/c1c(C)nn(C)c1Oc1ccc(C(C)(C)C)cc1`
# output < 4.30

# input Lookup `Cc1nnsc1CO/N=C/c1c(C)nn(C)c1Oc1cc(F)cc(F)c1`
# output < 4.30

# input Lookup `Cc1nnsc1CO/N=C/c1c(C)nn(C)c1Oc1cccc(F)c1F`
# output 4.99
